protocol notes: HPLC (H3PO4) log P determination
Format: physicochemical
measurement kind: chromatographic logP
Please respond with just the number, no unit label.

Provide chromatographic logP value for the following compound: C[S@+]([O-])c1c(C(F)(F)F)ccc(C(=O)O)c1Cl [Example 1] 1
